target: human ACC2 (Homo sapiens, UniProt O00763); construct: made in house; host or cells: insect cells (baculoviral expression system); test: ACC2 assay, spectrophotometric 384 well assay (NADH-linked, coupled lactate dehydrogenase/pyruvate kinase); format: biochemical; conditions: ACC2 assay, hACC2 construct lacking 128 N-terminal amino acids, 25° C., 340 nm; read-out: IC50
Sequence (O00763 129-2458 limits assumed): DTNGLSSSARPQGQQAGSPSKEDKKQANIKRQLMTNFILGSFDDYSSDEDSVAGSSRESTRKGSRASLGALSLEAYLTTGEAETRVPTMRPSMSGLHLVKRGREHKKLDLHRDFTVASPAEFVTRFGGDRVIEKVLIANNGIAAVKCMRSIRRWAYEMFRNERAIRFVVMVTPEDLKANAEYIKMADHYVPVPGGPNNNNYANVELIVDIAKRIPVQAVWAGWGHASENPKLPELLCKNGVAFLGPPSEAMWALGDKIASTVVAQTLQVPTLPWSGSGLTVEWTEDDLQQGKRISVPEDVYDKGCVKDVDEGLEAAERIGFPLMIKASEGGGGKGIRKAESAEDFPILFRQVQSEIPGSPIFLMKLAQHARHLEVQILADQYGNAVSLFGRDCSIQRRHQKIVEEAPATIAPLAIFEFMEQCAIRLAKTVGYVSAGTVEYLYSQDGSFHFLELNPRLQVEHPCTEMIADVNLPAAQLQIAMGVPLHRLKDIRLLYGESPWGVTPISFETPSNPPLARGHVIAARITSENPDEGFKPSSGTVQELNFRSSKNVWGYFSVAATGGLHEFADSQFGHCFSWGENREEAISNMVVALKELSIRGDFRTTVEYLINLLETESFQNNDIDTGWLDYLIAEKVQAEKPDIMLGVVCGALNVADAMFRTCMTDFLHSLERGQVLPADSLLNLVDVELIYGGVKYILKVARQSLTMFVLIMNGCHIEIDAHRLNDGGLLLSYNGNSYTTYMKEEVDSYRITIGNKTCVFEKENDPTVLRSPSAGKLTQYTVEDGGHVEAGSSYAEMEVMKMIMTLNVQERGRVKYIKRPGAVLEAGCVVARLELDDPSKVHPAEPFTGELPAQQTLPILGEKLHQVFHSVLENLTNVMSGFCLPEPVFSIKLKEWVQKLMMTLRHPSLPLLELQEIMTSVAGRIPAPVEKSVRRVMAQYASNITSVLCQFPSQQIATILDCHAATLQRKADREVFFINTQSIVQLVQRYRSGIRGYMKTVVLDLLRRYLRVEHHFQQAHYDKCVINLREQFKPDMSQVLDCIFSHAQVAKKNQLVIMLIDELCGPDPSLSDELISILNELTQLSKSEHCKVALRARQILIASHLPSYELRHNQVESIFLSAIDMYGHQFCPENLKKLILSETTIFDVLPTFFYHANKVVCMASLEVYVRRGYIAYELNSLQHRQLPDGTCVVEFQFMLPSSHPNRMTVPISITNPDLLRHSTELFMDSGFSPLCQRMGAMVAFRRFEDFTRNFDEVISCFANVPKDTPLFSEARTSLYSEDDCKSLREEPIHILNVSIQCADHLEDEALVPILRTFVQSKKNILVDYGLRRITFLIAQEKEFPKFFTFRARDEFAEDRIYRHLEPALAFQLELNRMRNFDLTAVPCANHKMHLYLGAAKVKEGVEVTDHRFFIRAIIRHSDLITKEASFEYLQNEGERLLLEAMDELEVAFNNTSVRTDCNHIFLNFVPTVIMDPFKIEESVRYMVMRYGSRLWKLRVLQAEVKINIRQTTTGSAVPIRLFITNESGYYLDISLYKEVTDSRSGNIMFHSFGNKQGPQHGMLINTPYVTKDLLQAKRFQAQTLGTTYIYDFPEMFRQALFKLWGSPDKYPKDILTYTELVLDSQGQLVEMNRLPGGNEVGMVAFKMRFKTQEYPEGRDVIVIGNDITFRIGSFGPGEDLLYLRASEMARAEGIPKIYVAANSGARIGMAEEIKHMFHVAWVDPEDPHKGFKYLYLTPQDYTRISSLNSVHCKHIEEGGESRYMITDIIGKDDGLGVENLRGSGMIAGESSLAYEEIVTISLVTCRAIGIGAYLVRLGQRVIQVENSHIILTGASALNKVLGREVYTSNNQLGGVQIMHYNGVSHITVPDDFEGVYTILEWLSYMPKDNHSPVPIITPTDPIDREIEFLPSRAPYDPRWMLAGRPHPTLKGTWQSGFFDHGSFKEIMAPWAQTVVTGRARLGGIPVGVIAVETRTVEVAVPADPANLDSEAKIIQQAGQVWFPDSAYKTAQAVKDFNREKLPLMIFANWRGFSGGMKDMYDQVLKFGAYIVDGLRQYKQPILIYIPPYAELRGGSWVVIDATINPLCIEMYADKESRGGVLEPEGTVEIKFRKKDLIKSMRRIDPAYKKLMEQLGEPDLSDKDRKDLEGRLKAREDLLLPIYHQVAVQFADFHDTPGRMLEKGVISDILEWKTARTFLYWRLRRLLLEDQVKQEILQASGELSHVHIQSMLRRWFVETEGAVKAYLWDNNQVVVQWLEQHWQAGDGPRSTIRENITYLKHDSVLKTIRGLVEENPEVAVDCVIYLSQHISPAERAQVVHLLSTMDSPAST
For each record, check the reported IC50: if it is below 500 nM write satisfied, else write not satisfied.

Take a look at these entries with their results.
> print(dat)
                                    compound                              assay.target            cat
 1  CC(=O)N[C@@H](C)c1ccc(C2CCN(c3cc(NCc4ccco4)ncn3)CC2)cc1 [Example 11.59]  human ACC2 (Homo sapiens, UniProt O00763)  not satisfied
 2  COC[C@H]1CCCN1C(=O)c1cnc(N2CCC(c3ccc([C@H](C)NC(C)=O)cc3)CC2)nc1 [Example 18.27]  human ACC2 (Homo sapiens, UniProt O00763)  not satisfied
 3  CCOc1ccc(N2CCC(c3ccc([C@H](C)NC(=O)C4(C)COC4)cc3)CC2)cc1 [Example 6.27]  human ACC2 (Homo sapiens, UniProt O00763)  not satisfied
 4  CC(=O)N[C@@H](C)c1ccc(C2CCN(c3ncc(-c4ccc(C)cc4)cn3)CC2)cc1 [Example 10.44]  human ACC2 (Homo sapiens, UniProt O00763)      satisfied
 5  CC#CCOc1nccc(N2CCC(c3ccc([C@H](C)NC(C)=O)cc3)CC2)n1 [Example 11.20]  human ACC2 (Homo sapiens, UniProt O00763)  not satisfied
 6  CCOc1ccc(N2CCC(c3ccc([C@H](C)NC(C)=O)cc3)CC2)c(C(N)=O)c1 [Example 37.1]  human ACC2 (Homo sapiens, UniProt O00763)  not satisfied
 7  CC(=O)N[C@@H](C)c1ccc(C2CCN(c3ccc(C(=O)Nc4ccccc4)cn3)CC2)cc1 [Example 5.30]  human ACC2 (Homo sapiens, UniProt O00763)      satisfied
 8  CC(=O)N[C@@H](C)c1ccc(C2CCN(c3ccc4c(c3)OCC(C)(C)CO4)CC2)cc1 [Example 1.61]  human ACC2 (Homo sapiens, UniProt O00763)      satisfied
 9  CCOc1ccc(N2CCC(c3ccc([C@H](C)NC(C)=O)cc3)CC2)c(OCC)c1 [Example 1.42]  human ACC2 (Homo sapiens, UniProt O00763)  not satisfied
10  CC(=O)N[C@@H](C)c1ccc(C2CCN(c3ccnc(OCC(F)F)c3)CC2)cc1 [Example 19.19]  human ACC2 (Homo sapiens, UniProt O00763)      satisfied

query: Given the entry CC(=O)N[C@@H](C)c1ccc(C2CCN(c3ccnc(OCc4cccnc4)c3)CC2)cc1 [Example 19.34] , would its reported IC50 be below 500 nM?
result: not satisfied

query: IC50 under 500 nM? Item: CC(=O)N[C@@H](C)c1ccc(C2CCN(c3ccc(OCC(C)C)c(F)c3)CC2)cc1 [Example 8.28]
result: satisfied

----------
biological target: human ACC2 (Homo sapiens, UniProt O00763); construct: made in house; host or cells: insect cells (baculoviral expression system); assay: ACC2 assay, spectrophotometric 384 well assay (NADH-linked, coupled lactate dehydrogenase/pyruvate kinase); type: biochemical; details: ACC2 assay, hACC2 construct lacking 128 N-terminal amino acids, 25° C., 340 nm; read-out: IC50
Reported metric: IC50

query: Determine from records and report IC50 for CC(=O)N[C@@H](C)c1ccc(C2CCN(c3ccc(OC(C)C)cc3F)CC2)cc1
result: 100 nM

query: Report IC50, nothing else, for this compound: CCOc1ccc(N2CCC(c3ccc([C@H](C)NC(C)=O)cc3)CC2)cc1C
result: 830 nM

query: Return the recorded IC50 value; entry: CC(=O)N[C@@H](C)c1ccc(C2CCN(c3ccnc(O[C@H]4CCOC4)n3)CC2)cc1
result: 6200 nM

query: For the compound Cc1cccc(-c2cnc(N3CCC(c4ccc([C@H](C)NC(=O)C5CC5)cc4)CC3)nc2)c1 , report IC50.
result: 90 nM

// data source = patent US9006450B2
